These entries and their values trace back to ChEMBL document CHEMBL3507680.

METHOD_SUMMARY: Human HepG2 cell viability assay in 384 well format
Type: toxicity, cell-based
Set-up: dose 125 nL, time 70.5 hour; concentration not given beside the values
CONDITION_DESCRIPTION: HepG2 cells, read-out: Inhibition

[
  {
    "COMPOUND": "COc1ccc2nc(C3CC3)cc(C(=O)NCc3noc(C)n3)c2c1",
    "UNIT_STRING": "%",
    "cytotoxicity at 70.5 h": -1.37
  },
  {
    "COMPOUND": "Cc1nccn1C1CCCN(C(=O)c2cccc(-n3cccc3)c2)C1 (stereo not drawn)",
    "UNIT_STRING": "%",
    "cytotoxicity at 70.5 h": 11.6
  },
  {
    "COMPOUND": "CN(C)S(=O)(=O)CCCN1CCCC1c1noc(C2CC2)n1 (stereo not drawn)",
    "UNIT_STRING": "%",
    "cytotoxicity at 70.5 h": 22.8
  },
  {
    "COMPOUND": "COCCN1CCCC1c1nccnc1Nc1ncc(C)s1 (stereo not drawn)",
    "UNIT_STRING": "%",
    "cytotoxicity at 70.5 h": -1.57
  },
  {
    "COMPOUND": "COCC1Cn2nnc(-c3cnn(C)c3)c2CN1Cc1ccco1 (stereo not drawn)",
    "UNIT_STRING": "%",
    "cytotoxicity at 70.5 h": 5.04
  },
  {
    "COMPOUND": "COc1cc(N2CCc3ncnc(-c4ccoc4)c3CC2)ncn1",
    "UNIT_STRING": "%",
    "cytotoxicity at 70.5 h": -7.42
  },
  {
    "COMPOUND": "Cc1cnn(CC2CN(c3nc4ccccc4o3)CCO2)c1 (stereo not drawn)",
    "UNIT_STRING": "%",
    "cytotoxicity at 70.5 h": 16.4
  },
  {
    "COMPOUND": "CN(CCc1ncnn1C1Cc2ccccc2C1)C1CCS(=O)(=O)C1 (stereo not drawn)",
    "UNIT_STRING": "%",
    "cytotoxicity at 70.5 h": -11.8
  },
  {
    "COMPOUND": "Cc1noc(C2CCN(Cn3cc(Br)cn3)CC2)n1",
    "UNIT_STRING": "%",
    "cytotoxicity at 70.5 h": -8.17
  },
  {
    "COMPOUND": "CC(Cn1cncn1)NC(=O)NCC(C)(C)c1ccc(F)cc1 (stereo not drawn)",
    "UNIT_STRING": "%",
    "cytotoxicity at 70.5 h": 1.47
  },
  {
    "COMPOUND": "CSC(C)CC(=O)N1CCC(n2ccnn2)CC1 (stereo not drawn)",
    "UNIT_STRING": "%",
    "cytotoxicity at 70.5 h": -8.7
  },
  {
    "COMPOUND": "Cc1nn(C)c2nc(NC(C)c3nnn[nH]3)sc12 (stereo not drawn)",
    "UNIT_STRING": "%",
    "cytotoxicity at 70.5 h": 11.9
  },
  {
    "COMPOUND": "Cc1ccoc1C(=O)N1CC(C(=O)NCC2CC2)C2(CCOCC2)C1 (stereo not drawn)",
    "UNIT_STRING": "%",
    "cytotoxicity at 70.5 h": 1.52
  },
  {
    "COMPOUND": "O=C(O)CC(CC(=O)NCCc1ccsc1)c1cccs1 (stereo not drawn)",
    "UNIT_STRING": "%",
    "cytotoxicity at 70.5 h": -13.1
  },
  {
    "COMPOUND": "O=C(O)CN1CCC(F)(F)C2(CCN(c3ccccc3)C2)C1 (stereo not drawn)",
    "UNIT_STRING": "%",
    "cytotoxicity at 70.5 h": -5.61
  },
  {
    "COMPOUND": "O=C1CC[C@H]2[C@H](CCN2C(=O)C2CCOC2)N1Cc1ccncc1 (stereo partly drawn)",
    "UNIT_STRING": "%",
    "cytotoxicity at 70.5 h": -20.6
  },
  {
    "COMPOUND": "O=C(Cc1ccccc1)NCCNC(=O)c1scnc1Cl",
    "UNIT_STRING": "%",
    "cytotoxicity at 70.5 h": -9.54
  },
  {
    "COMPOUND": "COCCS(=O)(=O)c1ncc(CN(C)CC(C)C)n1Cc1ccccc1",
    "UNIT_STRING": "%",
    "cytotoxicity at 70.5 h": -1.85
  },
  {
    "COMPOUND": "CCOC(=O)CNC(=O)N1CCc2onc(-c3ccc(Cl)cc3)c2C1",
    "UNIT_STRING": "%",
    "cytotoxicity at 70.5 h": -16.3
  },
  {
    "COMPOUND": "OC(CN1CCN(Cc2nc(C3CC3)no2)CC1)c1ccccc1 (stereo not drawn)",
    "UNIT_STRING": "%",
    "cytotoxicity at 70.5 h": 2
  },
  {
    "COMPOUND": "COC(=O)CCN(C)C(=O)c1ccc(-c2cscn2)cc1",
    "UNIT_STRING": "%",
    "cytotoxicity at 70.5 h": 4.45
  },
  {
    "COMPOUND": "COc1cc(CNC(=O)c2cc(Cl)ccc2F)ccn1",
    "UNIT_STRING": "%",
    "cytotoxicity at 70.5 h": -5.8
  },
  {
    "COMPOUND": "CSC(C)(C)CNC(=O)NC1CCN(CC=C(C)C)CC1",
    "UNIT_STRING": "%",
    "cytotoxicity at 70.5 h": 31.2
  },
  {
    "COMPOUND": "COCC(=O)N1CCC(c2nc3ccc(-c4ccncc4)cn3n2)CC1",
    "UNIT_STRING": "%",
    "cytotoxicity at 70.5 h": -6.45
  },
  {
    "COMPOUND": "O=S(=O)(c1ccccc1)N1CCC2(CCCN2Cc2cccc(F)c2)C1 (stereo not drawn)",
    "UNIT_STRING": "%",
    "cytotoxicity at 70.5 h": 6.89
  },
  {
    "COMPOUND": "N#Cc1cccc(NC(=O)CCn2nc(-c3cccs3)oc2=O)c1",
    "UNIT_STRING": "%",
    "cytotoxicity at 70.5 h": -11
  },
  {
    "COMPOUND": "O=C(Nc1cnc2n1CCCC2)c1cccc(-n2cnnc2)c1",
    "UNIT_STRING": "%",
    "cytotoxicity at 70.5 h": -16.8
  },
  {
    "COMPOUND": "CCN1CCN(C(=O)c2csnn2)c2ccccc21",
    "UNIT_STRING": "%",
    "cytotoxicity at 70.5 h": 9.42
  },
  {
    "COMPOUND": "CS(=O)(=O)NCc1nnc2n1CCN(Cc1cccnc1)C2",
    "UNIT_STRING": "%",
    "cytotoxicity at 70.5 h": 18.3
  },
  {
    "COMPOUND": "Cn1cc(C(=O)N[C@@H]2CN(Cc3cccnc3)[C@@H]3CCCO[C@@H]32)cn1",
    "UNIT_STRING": "%",
    "cytotoxicity at 70.5 h": -4.29
  },
  {
    "COMPOUND": "CCN(C)C[C@@H]1CN(S(=O)(=O)c2ccc(C#N)cc2)C[C@@H]1CO",
    "UNIT_STRING": "%",
    "cytotoxicity at 70.5 h": -1.6
  },
  {
    "COMPOUND": "Cc1ccc(N(CC(=O)N2CCCCC2)C(=O)C2CCCO2)cc1 (stereo not drawn)",
    "UNIT_STRING": "%",
    "cytotoxicity at 70.5 h": -1.14
  },
  {
    "COMPOUND": "CC(C)(C)n1cc(C(=O)NCCCn2ccnc2)c2cccnc21",
    "UNIT_STRING": "%",
    "cytotoxicity at 70.5 h": -4.7
  },
  {
    "COMPOUND": "CN(C(=O)CSc1ncc[nH]1)c1ccccc1",
    "UNIT_STRING": "%",
    "cytotoxicity at 70.5 h": 31.6
  },
  {
    "COMPOUND": "Cc1nc(CN2CCN(Cc3ccoc3)Cc3cccnc32)cs1",
    "UNIT_STRING": "%",
    "cytotoxicity at 70.5 h": 32.4
  },
  {
    "COMPOUND": "Cc1c(F)cc(C(=O)O)cc1S(=O)(=O)Nc1ccc(F)c(C#N)c1",
    "UNIT_STRING": "%",
    "cytotoxicity at 70.5 h": -9.42
  },
  {
    "COMPOUND": "c1csc(CN2C[C@H](OCC3CCOCC3)[C@H]3COC[C@H]32)n1",
    "UNIT_STRING": "%",
    "cytotoxicity at 70.5 h": 14.6
  },
  {
    "COMPOUND": "O=C(COc1ccc(-n2cccn2)nn1)N1CCCC1",
    "UNIT_STRING": "%",
    "cytotoxicity at 70.5 h": -2.51
  },
  {
    "COMPOUND": "O=C(c1ccc(NCc2cccc(F)c2)cc1)N1CCCC1",
    "UNIT_STRING": "%",
    "cytotoxicity at 70.5 h": 1.69
  },
  {
    "COMPOUND": "NCC1Cc2cc(-c3cncc(C(=O)N4CCCCC4)n3)cc(F)c2O1 (stereo not drawn)",
    "UNIT_STRING": "%",
    "cytotoxicity at 70.5 h": -4.24
  },
  {
    "COMPOUND": "COCc1cncc2c1CCN(C(=O)c1ccsc1)C2",
    "UNIT_STRING": "%",
    "cytotoxicity at 70.5 h": 9.92
  },
  {
    "COMPOUND": "O=S(=O)(Cc1ccccc1)N1CCCn2cnc(CN3CCCC3)c2C1",
    "UNIT_STRING": "%",
    "cytotoxicity at 70.5 h": 0.898
  },
  {
    "COMPOUND": "CC(C)c1nn(C)c(N(C)C)c1CNCC(O)c1ccccc1 (stereo not drawn)",
    "UNIT_STRING": "%",
    "cytotoxicity at 70.5 h": -10.1
  },
  {
    "COMPOUND": "COc1ncccc1NC(=O)N1CCC(C(=O)NC(C)C)CC1",
    "UNIT_STRING": "%",
    "cytotoxicity at 70.5 h": -5.13
  },
  {
    "COMPOUND": "c1csc(N2CCN(c3ncnc4sccc34)CC2)n1",
    "UNIT_STRING": "%",
    "cytotoxicity at 70.5 h": -7.71
  },
  {
    "COMPOUND": "CC(CNCC1(S(C)(=O)=O)CCOCC1)c1ccc(F)cc1 (stereo not drawn)",
    "UNIT_STRING": "%",
    "cytotoxicity at 70.5 h": 9.05
  },
  {
    "COMPOUND": "CCCc1n[nH]c(C2CN(C(=O)CCn3cc(C)cn3)CCO2)n1 (stereo not drawn)",
    "UNIT_STRING": "%",
    "cytotoxicity at 70.5 h": 4.48
  },
  {
    "COMPOUND": "CCOCCn1c(=O)[nH]c2cc(C(=O)N(C)Cc3nc(C)cs3)ccc21",
    "UNIT_STRING": "%",
    "cytotoxicity at 70.5 h": -12.4
  }
]
